target: HLA-A*31:01; test: IEDB peptide-MHC binding, purified MHC/competitive/radioactivity; filed as Kd, often an IC50 or EC50 that approximates it; bounds were set here for any values at or beyond the usual limits of such assays; details: source organism: Mammarenavirus brazilense
Reported Property: Kd (nM)
Kindly answer with a numeric value in nM, unit omitted.

Exercise: Return the recorded Kd value; entry: TALAKCNLDH
Key: 878

* * *

target: HLA-B*07:02; assay: IEDB peptide-MHC binding, purified MHC/competitive/radioactivity; filed as Kd, often an IC50 or EC50 that approximates it; bounds were set here for any values at or beyond the usual limits of such assays; conditions: source organism: Dengue virus 1 Nauru/West Pac/1974
Reported Property: Kd (nM)
# unit: nM | format: bare number

Exercise: Give the value of Kd reported for the following: RARNRVSTV
Key: 2.62

* * *

biological target: HLA-B*46:01; assay: IEDB peptide-MHC binding, purified MHC/competitive/fluorescence; filed as Kd, often an IC50 or EC50 that approximates it; bounds were set here for any values at or beyond the usual limits of such assays; settings: source organism: Mus musculus
Reported Property: Kd

Exercise: Specify Kd for LVDENQSWY and stop.
Key: ≥ 20 µM

* * *

molecular target: HLA-A*33:01; test: IEDB peptide-MHC binding, purified MHC/competitive/radioactivity; filed as Kd, often an IC50 or EC50 that approximates it; bounds were set here for any values at or beyond the usual limits of such assays; settings: source organism: Lassa virus Josiah
I'd be grateful if you could share measured pKd for these entries.
Reminder that pKd means the negative base-10 logarithm of the concentration expressed in mol/L.

Exercise: Determine from records and report pKd for VTFLLLCGR
Key: 6.88

Exercise: Hello, please tell me recorded pKd for this one: LTYSQLMTLK
Key: 4.97

* * *

molecular target: HLA-B*07:02; assay: IEDB peptide-MHC binding, purified MHC/direct/fluorescence; filed as Kd, often an IC50 or EC50 that approximates it; bounds were set here for any values at or beyond the usual limits of such assays; details: source organism: Sudan ebolavirus - Maleo (1979)
Reported Property: Kd

Exercise: Report Kd, nothing else, for this sequence: MHYKLDEVL
Key: ≥ 20 µM

* * *

biological target: HLA-B*40:02; test: IEDB peptide-MHC binding, purified MHC/competitive/radioactivity; filed as Kd, often an IC50 or EC50 that approximates it; bounds were set here for any values at or beyond the usual limits of such assays; conditions: source organism: Lymphocytic choriomeningitis virus (strain Armstrong)
Reported Property: pKd
Recall that pKd is obtained by taking minus log10 of the concentration measured in molar.

Exercise: Give the value of pKd reported for the following: NDLQFGFGW
Key: 4.99

* * *

target: HLA-A*24:03; assay: IEDB peptide-MHC binding, purified MHC/competitive/fluorescence; filed as Kd, often an IC50 or EC50 that approximates it; bounds were set here for any values at or beyond the usual limits of such assays; settings: source organism: Homo sapiens
Reported Property: Kd

Exercise: Answer with the recorded Kd for the sequence listed here: SQLPPACPV
Key: ≥ 20 µM

* * *

biological target: HLA-A*26:01; experiment: IEDB peptide-MHC binding, purified MHC/competitive/fluorescence; filed as Kd, often an IC50 or EC50 that approximates it; bounds were set here for any values at or beyond the usual limits of such assays; conditions: source organism: Choclo virus
Reported Property: Kd

Exercise: Find the measured Kd of KACDLAMCY and report it.
Key: ≥ 20 µM

* * *

target: HLA-A*03:01; assay: IEDB peptide-MHC binding, purified MHC/direct/fluorescence; filed as Kd, often an IC50 or EC50 that approximates it; bounds were set here for any values at or beyond the usual limits of such assays; conditions: source organism: Influenza A virus (A/Nagasaki/N03/2005(H3N2))
Reported Property: Kd (nM)
Quick note: give the figure in nM, leave out the unit.

Exercise: Quote Kd with test system HLA-A*03:01 for RLNWLTHLK
Key: 264

* * *

molecular target: HLA-C*08:02; test: IEDB peptide-MHC binding, purified MHC/direct/fluorescence; filed as Kd, often an IC50 or EC50 that approximates it; bounds were set here for any values at or beyond the usual limits of such assays; details: source organism: Homo sapiens
Reported Property: Kd

Exercise: Give the reported Kd for this sequence. WTDLFDNKV
Key: 254 nM

* * *

molecular target: HLA-B*08:01; assay: IEDB peptide-MHC binding, purified MHC/direct/fluorescence; filed as Kd, often an IC50 or EC50 that approximates it; bounds were set here for any values at or beyond the usual limits of such assays; conditions: source organism: Corynebacterium glutamicum
Reported Property: Kd

Exercise: Give Kd for ATQPVHWFL
Key: ≥ 20 µM

* * *

molecular target: HLA-B*15:01; test: IEDB peptide-MHC binding, purified MHC/direct/fluorescence; filed as Kd, often an IC50 or EC50 that approximates it; bounds were set here for any values at or beyond the usual limits of such assays; conditions: source organism: Yersinia pestis
Reported Property: Kd (µM)
The response must be a number in µM with no trailing unit.

Exercise: Item RYQRMTGGY : provide Kd
Key: 1.35

Exercise: Quickly give me recorded Kd for FMHSAAPIT
Key: 1.92

* * *

molecular target: HLA-A*02:17; assay: IEDB peptide-MHC binding, purified MHC/competitive/radioactivity; filed as Kd, often an IC50 or EC50 that approximates it; bounds were set here for any values at or beyond the usual limits of such assays; settings: source organism: Dengue virus 2 Thailand/NGS-C/1944
Reported Property: Kd
Number plus unit, in that order.

Exercise: Complete the entry with Kd for GMIIMLIPTV
Key: 6.59 µM

* * *

biological target: HLA-A*26:03; assay: IEDB peptide-MHC binding, purified MHC/competitive/fluorescence; filed as Kd, often an IC50 or EC50 that approximates it; bounds were set here for any values at or beyond the usual limits of such assays; conditions: source organism: Brucella abortus S19
pKd: −log10 of the molar value.
Reported Property: pKd

Exercise: Please give the documented pKd of RMIESRMSK
Key: ≤ 4.70

* * *

molecular target: HLA-B*46:01; assay: IEDB peptide-MHC binding, purified MHC/direct/fluorescence; filed as Kd, often an IC50 or EC50 that approximates it; bounds were set here for any values at or beyond the usual limits of such assays; details: source organism: Bacillus anthracis
Reported Property: pKd
A value of pKd is the negative decimal logarithm of a concentration given in moles per litre.

Exercise: Tell me its pKd given KLYVNGKAY as the entry.
Key: 5.22

* * *

target: HLA-B*27:03; assay: IEDB peptide-MHC binding, purified MHC/competitive/fluorescence; filed as Kd, often an IC50 or EC50 that approximates it; bounds were set here for any values at or beyond the usual limits of such assays; conditions: source organism: Orthohantavirus sinnombreense
Reported Property: Kd

Exercise: Name the recorded Kd of the sequence listed here: LFPELECFF
Key: ≥ 20 µM

* * *

target: HLA-B*08:01; assay: IEDB peptide-MHC binding, purified MHC/direct/fluorescence; filed as Kd, often an IC50 or EC50 that approximates it; bounds were set here for any values at or beyond the usual limits of such assays; details: source organism: Yersinia pestis Antiqua
Reported Property: Kd

Exercise: Input RYQRMTGGY , output reported Kd.
Key: ≥ 20 µM

* * *

target: HLA-A*03:01; assay: IEDB peptide-MHC binding, purified MHC/direct/fluorescence; filed as Kd, often an IC50 or EC50 that approximates it; bounds were set here for any values at or beyond the usual limits of such assays; conditions: source organism: Escherichia coli O157:H7
pKd: −log10 of the molar value.
Reported Property: pKd

Exercise: Give the measured pKd for YECTSRHFT
Key: ≤ 4.70

* * *

target: HLA-B*48:01; experiment: IEDB peptide-MHC binding, purified MHC/direct/fluorescence; filed as Kd, often an IC50 or EC50 that approximates it; bounds were set here for any values at or beyond the usual limits of such assays; settings: source organism: Orthohantavirus hantanense
pKd: −log10 of the molar value.
Reported Property: pKd

Exercise: Recall and state the measured pKd for IRKPKHLYV .
Key: ≤ 4.70

* * *

target: HLA-B*51:01; experiment: IEDB peptide-MHC binding, purified MHC/direct/fluorescence; filed as Kd, often an IC50 or EC50 that approximates it; bounds were set here for any values at or beyond the usual limits of such assays; details: source organism: Mycobacterium tuberculosis
Reported Property: Kd (nM)
Give the value in nM but do not write nM after it.

Exercise: Supply measured Kd of MPRLSRNAA in your reply.
Key: 655

* * *

target: HLA-A*02:01; test: IEDB peptide-MHC binding, purified MHC/competitive/radioactivity; filed as Kd, often an IC50 or EC50 that approximates it; bounds were set here for any values at or beyond the usual limits of such assays; settings: source organism: Dengue virus 3 Sri Lanka/1266/2000
Reported Property: Kd (nM)
Write it as a number; the unit nM goes unstated.

Exercise: Give Kd for the following sequence: ILAGVSLLPV
Key: 4.65
